Provide the reported % recovered in feces of each item.
assay: Fecal recovery of orally administered compounds; type: in vivo, Sprague-Dawley rats; details: Structure (I) examples, Table 16; rat, oral gavage, feces collected until 48 hr after dosing

O=C(O)CCOCCOCCOCCNC(=O)c1cccc(SCc2cccc(C(=O)Nc3ccc(Cl)cc3-c3cc(C(=O)NCc4cccc(C(F)(F)F)c4)ccn3)c2)c1 | <20%
CN(CCOCCOCCOCCC(=O)O)C(=O)Cc1cccc(SCc2cccc(C(=O)Nc3ccc(N4CCCCC4)cc3-c3cc(C(=O)NCc4cccc(C(F)(F)F)c4)ccn3)c2)c1 | <20%
CCN(CC)c1ccc(NC(=O)c2cccc(CSCCOCCOCCOCCOCCC(=O)O)c2)c(-c2cc(C(=O)NCc3cccc(C(F)(F)F)c3)ccn2)c1 | 20-80%
CCCN(CCC)c1ccc(NC(=O)c2cccc(COCCOCCOCCOCCOCCOCCOCCOCCOC)c2)c(-c2cc(C(=O)NCc3cccc(C(F)(F)F)c3)ccn2)c1 | 20-80%
O=C(O)c1cccc(SCc2cccc(C(=O)Nc3ccc(N4CCCCC4)cc3-c3cc(C(=O)NCc4cccc(C(F)(F)F)c4)ccn3)c2)c1 | <20%

Please look at the items below and tell me % recovered in feces for each one, in order.
1. O=C(NCc1cccc(C(F)(F)F)c1)c1ccnc(-c2cc(N3CCCCC3)ccc2NC(=O)c2cccc(CSc3ccc(C(=O)O)c(Br)c3)c2)c1
2. O=C(NCc1cccc(C(F)(F)F)c1)c1ccnc(-c2cc(N3CCCCC3)ccc2NC(=O)c2cccc(CSCCCO)c2)c1
3. CCN(CC)c1ccc(NC(=O)c2cccc(CCCOCCOCCOCCOCCOCCOCCOCCOCCOC)c2)c(-c2cc(C(=O)NCc3cccc(C(F)(F)F)c3)ccn2)c1

[">80%", "<20%", "<20%"]
